target: human IGF1R cytoplasmic domain (Homo sapiens, UniProt P08069); construct: The human IGF1R cytoplasmic domain was cloned; made in house; host or cells: SF21 insect cells (baculovirus); assay: IGF1R autophosphorylation inhibition, time resolved fluorescence (HTRF) assay; assay type: biochemical; conditions: 10 μM; read-out: IGF1R % inhib at 10 μM
Sequence (P08069 960-1367 limits assumed): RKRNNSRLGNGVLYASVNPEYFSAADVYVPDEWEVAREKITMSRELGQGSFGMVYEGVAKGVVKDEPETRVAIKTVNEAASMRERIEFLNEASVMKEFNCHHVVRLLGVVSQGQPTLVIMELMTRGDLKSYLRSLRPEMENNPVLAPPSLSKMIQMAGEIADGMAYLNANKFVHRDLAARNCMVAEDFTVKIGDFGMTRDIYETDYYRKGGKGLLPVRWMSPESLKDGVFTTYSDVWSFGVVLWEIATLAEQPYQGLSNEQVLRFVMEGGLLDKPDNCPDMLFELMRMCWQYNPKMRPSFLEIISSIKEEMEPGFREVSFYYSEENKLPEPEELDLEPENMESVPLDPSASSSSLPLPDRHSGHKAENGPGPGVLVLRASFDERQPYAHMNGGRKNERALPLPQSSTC
Quantity Name: inhibition at 10 µM (%)
Give the value, in units of %, as a plain number.

Task: Which value of inhibition at 10 µM has been reported for COc1ccc(-c2n[nH]c3ccc(NS(=O)(=O)c4ccccc4S(C)(=O)=O)cc23)cc1 in the records?
Output: 93

Task: Quick one: Cc1ccccc1-c1n[nH]c2ccc(NS(=O)(=O)c3ccccc3S(C)(=O)=O)cc12
Output: 25

Task: Quick one: O=S(=O)(Nc1ccc2[nH]nc(-c3ccccc3)c2c1)c1ccc(Cl)s1
Output: 65

Task: Quick one: CS(=O)(=O)c1ccccc1S(=O)(=O)Nc1ccc2[nH]nc(Nc3ccccc3)c2c1
Output: 100

Task: Quick one: CS(=O)(=O)c1ccccc1S(=O)(=O)Nc1ccc2[nH]nc(-c3cccc(OC(F)(F)F)c3)c2c1
Output: 60

Task: Quick one: CS(=O)(=O)c1ccccc1S(=O)(=O)Nc1ccc2[nH]nc(-c3cccc(C#N)c3)c2c1
Output: 90

Task: Quick one: CN(C)c1ccc(-c2n[nH]c3ccc(NS(=O)(=O)c4ccccc4S(C)(=O)=O)cc23)cc1
Output: 81

Task: Quick one: CS(=O)(=O)c1ccccc1S(=O)(=O)Nc1ccc2[nH]nc(C#Cc3ccccc3)c2c1
Output: 90

Task: Quick one: COc1ccc(-c2n[nH]c3ccc(NS(=O)(=O)c4ccccc4S(C)(=O)=O)cc23)c(OC)c1OC
Output: 21

Task: Quick one: O=S(=O)(Nc1ccc2[nH]nc(-c3ccccc3)c2c1)c1cccc2nonc12
Output: 67

Task: Quick one: CS(=O)(=O)c1ccccc1S(=O)(=O)Nc1ccc2[nH]nc(-c3ccc(Br)cc3)c2c1
Output: 75

Task: Quick one: CC(C)c1cc(C(C)C)c(S(=O)(=O)Nc2ccc3[nH]nc(-c4ccccc4)c3c2)c(C(C)C)c1
Output: 50

Task: Quick one: CS(=O)(=O)c1ccccc1S(=O)(=O)Nc1ccc2[nH]nc(-c3cccs3)c2c1
Output: 65

Task: Quick one: O=C(Nc1n[nH]c2ccc(NS(=O)(=O)c3cc(F)cc(F)c3)cc12)c1ccccc1
Output: 82

Task: Quick one: CS(=O)(=O)c1ccccc1S(=O)(=O)Nc1ccc2[nH]nc(-c3cc(C(F)(F)F)cc(C(F)(F)F)c3)c2c1
Output: 28

Task: Quick one: CS(=O)(=O)c1ccccc1S(=O)(=O)Nc1ccc2[nH]nc(-c3ccc(F)c(F)c3)c2c1
Output: 72

Task: Quick one: O=C(O)c1cccc(S(=O)(=O)Nc2ccc3[nH]nc(-c4ccccc4)c3c2)c1
Output: 40

Task: Quick one: Cc1cccc(-c2n[nH]c3ccc(NS(=O)(=O)c4ccccc4S(C)(=O)=O)cc23)c1
Output: 71

Task: Quick one: CC(C)c1cccc(-c2n[nH]c3ccc(NS(=O)(=O)c4ccccc4S(C)(=O)=O)cc23)c1
Output: 59

Task: Quick one: CS(=O)(=O)c1ccccc1S(=O)(=O)Nc1ccc2[nH]nc(-c3ccc(Cl)c(Cl)c3)c2c1
Output: 66

Task: Quick one: COc1ccccc1-c1n[nH]c2ccc(NS(=O)(=O)c3ccccc3S(C)(=O)=O)cc12
Output: 50

Task: Quick one: CNc1n[nH]c2ccc(NS(=O)(=O)c3ccccc3S(C)(=O)=O)cc12
Output: 51

====

biological target: human KDR enzyme (Homo sapiens, UniProt P35968); construct: The cytoplasmic domain of the human KDR enzyme; GST; made in house; host or cells: SF21 insect cells (baculovirus); assay: KDR substrate (PLCγ) phosphorylation, scintillation assay; type: biochemical; settings: 10 μM; read-out: KDR % inhib at 10 μM
Sequence (P35968 786-1356 limits assumed): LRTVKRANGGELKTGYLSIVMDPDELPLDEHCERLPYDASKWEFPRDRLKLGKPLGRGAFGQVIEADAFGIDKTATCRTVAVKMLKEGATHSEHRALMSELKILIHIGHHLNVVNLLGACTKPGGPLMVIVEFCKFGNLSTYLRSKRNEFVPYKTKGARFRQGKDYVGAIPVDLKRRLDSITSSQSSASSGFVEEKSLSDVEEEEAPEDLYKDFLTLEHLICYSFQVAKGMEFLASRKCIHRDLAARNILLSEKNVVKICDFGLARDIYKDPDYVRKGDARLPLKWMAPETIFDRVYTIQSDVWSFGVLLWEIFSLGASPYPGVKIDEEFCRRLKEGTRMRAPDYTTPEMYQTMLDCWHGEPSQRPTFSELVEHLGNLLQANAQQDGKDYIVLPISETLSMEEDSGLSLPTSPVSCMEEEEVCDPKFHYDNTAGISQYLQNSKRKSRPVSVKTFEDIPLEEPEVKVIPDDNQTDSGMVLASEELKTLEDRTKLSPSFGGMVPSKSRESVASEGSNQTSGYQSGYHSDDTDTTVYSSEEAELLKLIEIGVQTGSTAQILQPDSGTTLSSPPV
Quantity Name: inhibition at 10 µM (%)
Give the value, in units of %, as a plain number.

Task: Which value of inhibition at 10 µM has been reported for COc1ccc(S(=O)(=O)Nc2ccc3[nH]nc(-c4ccccc4)c3c2)cc1 in the records?
Output: 69

Task: Quick one: O=[N+]([O-])c1ccccc1CS(=O)(=O)Nc1ccc2[nH]nc(-c3ccccc3)c2c1
Output: 63

Task: Quick one: CNC(=O)c1n[nH]c2ccc(NS(=O)(=O)c3cccc(F)c3)cc12
Output: 73

Task: Quick one: CS(=O)(=O)c1ccccc1S(=O)(=O)Nc1ccc2[nH]nc(-c3cccc4cccnc34)c2c1
Output: 28

Task: Quick one: Cc1cc(C)cc(-c2n[nH]c3ccc(NS(=O)(=O)c4ccccc4S(C)(=O)=O)cc23)c1
Output: 49

Task: Quick one: CS(=O)(=O)c1ccccc1S(=O)(=O)Nc1ccc2[nH]nc(-c3ccc4[nH]ccc4c3)c2c1
Output: 75

Task: Quick one: Cc1ccc(S(=O)(=O)Nc2ccc3[nH]nc(-c4ccccc4)c3c2)cc1
Output: 72

Task: Quick one: O=S(=O)(Nc1ccc2[nH]nc(-c3ccccc3)c2c1)c1ccccc1OC(F)(F)F
Output: 85

Task: Quick one: CS(=O)(=O)c1ccccc1S(=O)(=O)Nc1ccc2[nH]nc(-c3cccc4ccccc34)c2c1
Output: 41

Task: Quick one: CSc1ccc(-c2n[nH]c3ccc(NS(=O)(=O)c4ccccc4S(C)(=O)=O)cc23)cc1
Output: 71

Task: Quick one: CN(C)c1c(F)c(F)c(S(=O)(=O)Nc2ccc3[nH]nc(-c4cc5ccccc5[nH]4)c3c2)c(F)c1F
Output: 85

Task: Quick one: Nc1cccc(S(=O)(=O)Nc2ccc3[nH]nc(-c4ccccc4)c3c2)c1
Output: 91

Task: Quick one: O=S(=O)(Nc1ccc2[nH]nc(-c3ccccc3)c2c1)c1ccccc1Br
Output: 96

Task: Quick one: Nc1n[nH]c2ccc(NS(=O)(=O)c3c(Cl)cccc3Cl)cc12
Output: 36

====

Would you kindly list inhibition at 10 µM for each of these compounds?
target: human FAK (Homo sapiens, UniProt Q05397); construct: The complete cDNA of human FAK; made in house; host or cells: baculovirus expression system (vector pFastBac HTc); experiment: FAK autophosphorylation inhibition, time resolved fluorescence (HTRF) assay; type: biochemical; details: 10 μM (values without asterisk); read-out: FAK % inhib at 10 μM
Sequence (Q05397 whole entry): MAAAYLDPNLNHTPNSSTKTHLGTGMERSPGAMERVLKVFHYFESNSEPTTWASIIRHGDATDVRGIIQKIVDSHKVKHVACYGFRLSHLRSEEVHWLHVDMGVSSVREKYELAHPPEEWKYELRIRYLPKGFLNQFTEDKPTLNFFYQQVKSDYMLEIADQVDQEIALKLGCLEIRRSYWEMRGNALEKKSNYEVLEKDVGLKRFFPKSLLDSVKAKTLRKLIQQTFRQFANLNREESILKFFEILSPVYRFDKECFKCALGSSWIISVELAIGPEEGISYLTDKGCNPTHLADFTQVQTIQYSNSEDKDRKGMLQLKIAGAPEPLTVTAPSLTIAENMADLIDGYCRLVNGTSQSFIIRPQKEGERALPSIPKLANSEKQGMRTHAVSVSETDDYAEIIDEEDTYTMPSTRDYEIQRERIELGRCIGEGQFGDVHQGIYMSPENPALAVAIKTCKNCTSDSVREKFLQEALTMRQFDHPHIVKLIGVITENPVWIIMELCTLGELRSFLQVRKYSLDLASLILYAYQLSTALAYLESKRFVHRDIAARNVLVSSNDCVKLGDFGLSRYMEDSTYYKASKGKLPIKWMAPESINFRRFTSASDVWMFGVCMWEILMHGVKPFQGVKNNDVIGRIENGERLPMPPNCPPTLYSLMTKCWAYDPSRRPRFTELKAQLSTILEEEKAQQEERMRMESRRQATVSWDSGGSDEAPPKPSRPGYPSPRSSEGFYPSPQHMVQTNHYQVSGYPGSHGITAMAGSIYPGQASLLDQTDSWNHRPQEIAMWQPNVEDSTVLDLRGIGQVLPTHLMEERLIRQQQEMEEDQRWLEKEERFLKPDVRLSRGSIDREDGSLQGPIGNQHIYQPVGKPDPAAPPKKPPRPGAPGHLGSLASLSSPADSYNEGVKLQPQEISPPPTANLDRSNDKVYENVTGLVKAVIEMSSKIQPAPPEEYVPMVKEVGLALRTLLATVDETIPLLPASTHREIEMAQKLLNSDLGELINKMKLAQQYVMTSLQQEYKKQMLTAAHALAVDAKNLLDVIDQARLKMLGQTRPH
Give the value, in units of %, as a plain number.

Task: Which value of inhibition at 10 µM has been reported for COC(=O)c1ccc(-c2n[nH]c3ccc(NS(=O)(=O)c4ccccc4S(C)(=O)=O)cc23)cc1 in the records?
Output: 91

Task: Quick one: CS(=O)(=O)c1ccccc1S(=O)(=O)Nc1ccc2[nH]nc(/C=C/c3ccc(F)cc3)c2c1
Output: 99

Task: Quick one: CS(=O)(=O)c1ccccc1S(=O)(=O)Nc1ccc2[nH]nc(/C=C/c3ccccc3)c2c1
Output: 94

====

Would you kindly list inhibition at 10 µM for each of these molecules?
target: human KDR enzyme (Homo sapiens, UniProt P35968); construct: The cytoplasmic domain of the human KDR enzyme; GST; made in house; host or cells: SF21 insect cells (baculovirus); assay: KDR substrate (PLCγ) phosphorylation, scintillation assay; format: biochemical; settings: 10 μM; read-out: KDR % inhib at 10 μM
Give the value, in units of %, as a plain number.

Task: human KDR enzyme (Homo sapiens, UniProt P35968) / inhibition at 10 µM / CS(=O)(=O)c1ccccc1S(=O)(=O)Nc1ccc2[nH]nc(-c3ccc(Br)cc3)c2c1 : value?
Output: 65

Task: Quick one: CNc1n[nH]c2ccc(NS(=O)(=O)c3ccccc3S(C)(=O)=O)cc12
Output: 8

Task: Quick one: O=S(=O)(Nc1ccc2[nH]nc(-c3ccccc3)c2c1)c1ccccc1F
Output: 90

====

target: Aurora2 kinase (Homo sapiens, UniProt O14965); construct: A complete recombinant Aurora2 enzyme; His tag (N); made in house; host or cells: E. coli; test: Aurora2 kinase radioactivity scintillation assay using nickel chelate (NuMA substrate); type: biochemical; details: 10 μM; read-out: Aurora2 % inhib at 10 μM
Sequence (O14965 whole entry): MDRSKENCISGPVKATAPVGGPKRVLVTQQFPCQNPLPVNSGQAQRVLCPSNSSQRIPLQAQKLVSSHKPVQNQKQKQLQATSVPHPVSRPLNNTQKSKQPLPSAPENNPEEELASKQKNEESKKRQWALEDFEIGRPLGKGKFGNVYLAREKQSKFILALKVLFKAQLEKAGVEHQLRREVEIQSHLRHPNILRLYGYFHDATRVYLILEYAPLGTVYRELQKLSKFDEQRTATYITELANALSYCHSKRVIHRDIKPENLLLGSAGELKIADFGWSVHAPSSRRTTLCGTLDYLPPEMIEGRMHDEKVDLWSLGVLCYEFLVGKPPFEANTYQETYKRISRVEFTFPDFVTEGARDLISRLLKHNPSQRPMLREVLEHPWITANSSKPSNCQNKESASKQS
# label = y if inhibition at 10 µM >= 90% else n

Task: I'd appreciate it if you could say whether CS(=O)(=O)c1ccccc1S(=O)(=O)Nc1ccc2[nH]nc(NC(=O)c3ccccc3)c2c1 has inhibition at 10 µM at least equal to 90%.
Output: y

Task: Quick one: O=S(=O)(Nc1ccc2[nH]nc(-c3ccccc3)c2c1)c1ccccc1C(F)(F)F
Output: y

Task: Quick one: CS(=O)(=O)c1ccccc1S(=O)(=O)Nc1ccc2[nH]nc(Br)c2c1
Output: n

Task: Quick one: CS(=O)(=O)c1ccccc1S(=O)(=O)Nc1ccc2[nH]nc(-c3cccc(OC(F)(F)F)c3)c2c1
Output: n

Task: Quick one: CS(=O)(=O)c1ccccc1S(=O)(=O)Nc1ccc2[nH]nc(-c3cccc(Cl)c3Cl)c2c1
Output: n

Task: Quick one: CS(=O)(=O)c1ccccc1S(=O)(=O)Nc1ccc2[nH]nc(-c3cc(F)cc(F)c3)c2c1
Output: y

Task: Quick one: CC(C)c1ccc(-c2n[nH]c3ccc(NS(=O)(=O)c4ccccc4S(C)(=O)=O)cc23)cc1
Output: n

Reference source: patent US6858638B2
